- ASSAY_SYSTEM: GABAA receptor β3 subunit (α1β3 GABAAR) (Homo sapiens, UniProt P14867+P28472)
- ASSAY_REMARKS: photoaffinity labeling with residue identification
TEST_READOUT: pEC50
In simple prose, pEC50 is minus the logarithm base ten of a concentration in moles per litre.

Notebook entry, GABAA receptor β3 subunit (α1β3 GABAAR) (Homo sapiens, UniProt P14867+P28472) assay: pEC50 of CC(c1ccccc1)n1cncc1C(=O)OCCC1(C)N=N1 (stereo not shown) [azietomidate] = ?
5.57
